# assayInfo: inhibitors of Toxoplasma growth in IFN-γ-primed HeLa – cell-based, ME49Luc, luciferase, 72 h, dose response (AID 1259418)
# reportedConditions: T. gondii ME49Luc in IFN-y HeLa, stronger effect = lower value, -100% = high-dose IFN-γ control wells; at 19.5 µM unless noted
The whole screen tested about 3,400 compounds, of which about 840 (25%) were called active. Not shown: some 11% with an inconclusive outcome. Only a sample is shown. Entries with a potency or affinity are not part of this list.
testReadout: max activity

Solved entries:
COc1ccccc1CNC(=O)CC1Nc2c3ccccc3nc(=S)n2C1=O (stereo unspecified); 46.9% [at 0.16 µM] (inactive)
N#Cc1cccc(C(=O)N2CCC3C2CC(=O)N3Cc2ccncc2)c1 (stereo unspecified); 25.6% (inactive)
COc1ccc(Cl)cc1S(=O)(=O)Nc1ccc(-c2nc(-c3ccc(C)c(C)c3)co2)cc1; 41.1% [at 10 µM] (inactive)
CCn1c(C2CCCN(C(=O)CCN3CCCCCC3=O)C2)nn(C)c1=O (stereo unspecified); 20.9% (inactive)

Respond only with max activity recorded for Cc1nc(-c2ccc(F)cc2)sc1-c1ccc(SCc2ccc(Br)cc2)nn1
10.9% [at 1.35 µM] (inactive)

Determine from records and report max activity for COc1ccc(OCC(=O)N2CCC[C@@H]2C(=O)NCCc2csc(-c3ccccc3)n2)cc1
10.2% [at 0.16 µM] (inactive)

Please indicate max activity recorded for COc1ccc(NC(=O)CN2CCC3(CC2)N=C(c2cccc(F)c2)C(=O)N3)cc1Cl
18.3% [at 5 µM] (inactive)

Indicate the recorded max activity value for this compound: COc1ccc(C(=O)N2CCC(C(=O)NCCc3csc(-c4ccccc4)n3)CC2)cc1
12.2% [at 0.16 µM] (inactive)

Give a short answer stating reported max activity for Cc1ccc(-c2nc(Cn3nnc(-c4nc(-c5ccc(C(F)(F)F)cc5)no4)c3C)c(C)o2)cc1 .
11.8% [at 0.35 µM] (inactive)

Return reported max activity. Input compound: CC(C)CC#Cc1ccc([C@@H]2[C@H]3CN(C(=O)Nc4cc(F)ccc4F)CC(=O)N3[C@H]2CO)cc1
2.95% [at 0.16 µM] (inactive)

Provide measured max activity value, entry: Cc1ccc(-c2coc(-c3ccc(NC(=O)NCc4ccccc4)cc3)n2)c(C)c1
5.28% [at 0.16 µM] (inactive)

Reference source: PubChem BioAssay AID1259418
